Entry source: ChEMBL document CHEMBL2417483

Assign MIC to each entry below.
- Test system: Priestia megaterium
- test_name: Bacteriostatic activity against Bacillus megaterium ATCC 9885 after 24 hrs by two-fold serial dilution assay
- Format: functional
- assay_setup: ATCC 9885, 24 h
Express it in µg/mL; write the number only.

Record O=C(O)CNC(=O)c1ccc(NC(=S)N/N=C2/CCc3ccccc32)cc1 , field MIC: 50

Record O=C(O)c1cn(C2CC2)c2cc(N3CCNCC3)c(F)cc2c1=O [CIPROFLOXACIN] , field MIC: 6.25

Record O=C(O)CNC(=O)c1ccc(NC(=S)N/N=C/c2ccc(F)cc2)cc1 , field MIC: 12.5

Record C/C(=N\NC(=S)Nc1ccc(C(=O)NCC(=O)O)cc1)c1ccc(C)cc1 , field MIC: 12.5
